All figures here come from PubChem BioAssay (NCI).

# System: MALME-3M melanoma
# assay remarks: NCI-60 one-dose screen, 48 h
# study conditions: 10 µM unless noted
The panel holds about 83,000 compounds, 20% with a hit somewhere; the sample as a whole holds those more often. Calls of active or inactive are those of the source. The calls were made as follows: active = growth percent below 10; inactive = the rest.
Can you answer with just one of these options? active, inactive

# count of solved cases: 8
INSERT INTO assay_data (molecule, system_under_test, category_label) VALUES
  ('COc1ccc([N+](=O)[O-])c(S(=O)(=O)c2ccc(Cl)cc2)n1', 'MALME-3M melanoma', 'inactive'),
  ('O=C1Nc2ccc(Cl)cc2[C@@](C#CC2CC2)(C(F)(F)F)O1', 'MALME-3M melanoma', 'inactive'),
  ('C[C@]12CCC(=O)C=C1CCC1C2[C@@H](O)C[C@@]2(C)C1CC[C@]2(O)C(=O)COC(=O)CCC(=O)O (some centres not stated)', 'MALME-3M melanoma', 'inactive'),
  ('COc1cc(/C(Cl)=C/C=C/C(=O)c2c(C)[n+]([O-])c3ccc(Cl)cc3[n+]2[O-])cc(OC)c1OC', 'MALME-3M melanoma', 'inactive'),
  ('c1ccc(Nc2ccc(Nc3nc(-c4ccccc4)nc4ccccc34)cc2)cc1', 'MALME-3M melanoma', 'inactive'),
  ('FC(F)(F)c1cc(-c2nnc3n2N=C(N2CCCC2)CS3)cc(C(F)(F)F)c1', 'MALME-3M melanoma', 'inactive'),
  ('COc1ccc(Oc2ccccc2NC(=O)CNC(=O)c2cccc3ccccc23)cc1', 'MALME-3M melanoma', 'inactive'),
  ('NS(=O)(=O)c1ccc(-n2nc(-c3ccc(Br)cc3)ccc2=O)cc1', 'MALME-3M melanoma', 'inactive');

Exam item: What is the recorded call for this molecule in the test? O[N+]1=CC=CCC1=S.On1ccccc1=S.[Zn]
Marked response: active

Exam item: What is the recorded call for this molecule in the test? COc1ccc2c(c1)[n+](=O)c(C(=O)/C=C/c1cc(OC)c(OC)c(OC)c1)c(C)n2[O-]
Marked response: inactive

Exam item: What is the recorded call for this molecule in the test? Cc1ccc(C(=O)Cc2ccccc2)c(O)c1
Marked response: inactive

Exam item: What is the recorded call for this molecule in the test? Oc1ccc(/C=N/Nc2nc3ccccc3s2)c(O)c1
Marked response: inactive
